B1: Azoarcus group I ribozyme (parent)
chain: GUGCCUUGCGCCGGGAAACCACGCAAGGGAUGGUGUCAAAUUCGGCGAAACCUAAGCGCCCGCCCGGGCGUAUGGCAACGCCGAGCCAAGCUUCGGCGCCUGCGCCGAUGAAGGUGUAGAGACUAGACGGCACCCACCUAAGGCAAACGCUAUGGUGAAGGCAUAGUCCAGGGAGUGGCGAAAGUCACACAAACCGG

Variants of: B1
Experiment: reverse-splicing fitness (ratio to wild type); higher = more active; in vitro selection; Mg2+ level not given

{"Variant Annotation": "C82A A111G C169A U176C", "reverse-splicing fitness": 0.019}
{"Variant Annotation": "C82U A111G A120C A145U C150U C169G U176C", "reverse-splicing fitness": 0.0121}
{"Variant Annotation": "C82G A120C A145G C150G C169A U176A", "reverse-splicing fitness": 0.0143}
{"Variant Annotation": "A111U A120C A145G C150U C169A U176G", "reverse-splicing fitness": 0.00555}
{"Variant Annotation": "C82G A111U A120U A145U C169U", "reverse-splicing fitness": 0.00419}
{"Variant Annotation": "C82A A120G C150U", "reverse-splicing fitness": 0.0158}
{"Variant Annotation": "C82U A111G A120U A145U C150U U176C", "reverse-splicing fitness": 0.013}
{"Variant Annotation": "C82A A111G A120C A145U C150A C169G U176C", "reverse-splicing fitness": 0.0245}
{"Variant Annotation": "C82A A111U C150G U176G", "reverse-splicing fitness": 0.00369}
{"Variant Annotation": "A111G A120C A145G C169U", "reverse-splicing fitness": 0.254}
{"Variant Annotation": "C82A A111G A120G A145C C169A U176C", "reverse-splicing fitness": 0.00752}
{"Variant Annotation": "C82A A111G A120G A145U C150U U176G", "reverse-splicing fitness": 0.00595}
{"Variant Annotation": "A111G A120U A145U C169G U176G", "reverse-splicing fitness": 0.00196}
{"Variant Annotation": "C82A A111C A145G C169G U176C", "reverse-splicing fitness": 0.0335}
{"Variant Annotation": "A111U A120U A145U C150G C169A", "reverse-splicing fitness": 0.00326}
{"Variant Annotation": "C82G A111C A120U A145U C150A C169U", "reverse-splicing fitness": 0.00311}
{"Variant Annotation": "C82U A111G C150A C169U U176C", "reverse-splicing fitness": 0.0161}
{"Variant Annotation": "A111U A120C A145G C150A C169G U176G", "reverse-splicing fitness": 0.00488}
{"Variant Annotation": "C82A A111C A120C C150A C169U U176G", "reverse-splicing fitness": 0.00868}
{"Variant Annotation": "C82A A120U A145U C150U C169G U176G", "reverse-splicing fitness": 0.00197}
{"Variant Annotation": "A120U C150G C169A", "reverse-splicing fitness": 0.00834}
{"Variant Annotation": "C82U A120G A145U C150A C169A U176A", "reverse-splicing fitness": 0.0112}
{"Variant Annotation": "C82G A111G A120C A145G C150G C169A U176C", "reverse-splicing fitness": 0.0151}
{"Variant Annotation": "C82U A120G A145G C169A U176G", "reverse-splicing fitness": 0.00333}
{"Variant Annotation": "C82G A111U A145G C150U U176G", "reverse-splicing fitness": 0.0447}
{"Variant Annotation": "C82A A145G U176C", "reverse-splicing fitness": 0.488}
{"Variant Annotation": "C82G A120G A145C C150A U176G", "reverse-splicing fitness": 0.00453}
{"Variant Annotation": "A111G A120C C169A U176A", "reverse-splicing fitness": 0.0147}
{"Variant Annotation": "C82U A111C A120C A145G C169A U176G", "reverse-splicing fitness": 0.00658}
{"Variant Annotation": "C82A A111C A120C A145U C150U C169G U176A", "reverse-splicing fitness": 0.0127}
{"Variant Annotation": "A120C C150G U176G", "reverse-splicing fitness": 0.0145}
{"Variant Annotation": "C82U A111G A120U A145G C150U C169A U176C", "reverse-splicing fitness": 0.00369}
{"Variant Annotation": "C82A A111G C169U U176C", "reverse-splicing fitness": 0.0142}
{"Variant Annotation": "A111C A120U C150A C169U", "reverse-splicing fitness": 0.00953}
{"Variant Annotation": "A111G A120U C150G C169G U176A", "reverse-splicing fitness": 0.00427}
{"Variant Annotation": "C82A A111C A120G C150U C169U U176C", "reverse-splicing fitness": 0.0155}
{"Variant Annotation": "C82G A111U A120C A145U C150A C169U U176G", "reverse-splicing fitness": 0.00715}
{"Variant Annotation": "C82A A111U A145U C169U", "reverse-splicing fitness": 0.0125}
{"Variant Annotation": "C82U A145C C150U U176C", "reverse-splicing fitness": 0.127}
{"Variant Annotation": "C82A A111G A120C A145C C150U C169U U176G", "reverse-splicing fitness": 0.00597}
{"Variant Annotation": "C82A A111C A120G C150A C169G U176G", "reverse-splicing fitness": 0.00735}
{"Variant Annotation": "C82G A111G A120C A145G C150A C169U U176A", "reverse-splicing fitness": 0.0153}
{"Variant Annotation": "C82G A111C A120C A145C C150U U176A", "reverse-splicing fitness": 0.0114}
{"Variant Annotation": "C82U A111U A120G A145G C150G C169A U176A", "reverse-splicing fitness": 0.0128}
{"Variant Annotation": "C82A A111U A120C C150A C169A U176C", "reverse-splicing fitness": 0.0233}
{"Variant Annotation": "C82U A145C C169A U176G", "reverse-splicing fitness": 0.00383}
{"Variant Annotation": "C82A A111U A120C C169G U176G", "reverse-splicing fitness": 0.00706}
{"Variant Annotation": "C82U A111U A145C C150U U176G", "reverse-splicing fitness": 0.011}
{"Variant Annotation": "C82U A111U A120C A145U U176A", "reverse-splicing fitness": 0.0127}
{"Variant Annotation": "C82A A111C", "reverse-splicing fitness": 0.228}
{"Variant Annotation": "C82U A111C A120G A145U C169A U176C", "reverse-splicing fitness": 0.01}
